List of kon values.
- testedSystem: T1, mouse ROR1-Fc fusion protein (mouse)
- T1 construct: Whole entry 'mouse ROR1-Fc (CHO)'; also called mROR1
- T1 sequence (chain, as listed by the source limits assumed): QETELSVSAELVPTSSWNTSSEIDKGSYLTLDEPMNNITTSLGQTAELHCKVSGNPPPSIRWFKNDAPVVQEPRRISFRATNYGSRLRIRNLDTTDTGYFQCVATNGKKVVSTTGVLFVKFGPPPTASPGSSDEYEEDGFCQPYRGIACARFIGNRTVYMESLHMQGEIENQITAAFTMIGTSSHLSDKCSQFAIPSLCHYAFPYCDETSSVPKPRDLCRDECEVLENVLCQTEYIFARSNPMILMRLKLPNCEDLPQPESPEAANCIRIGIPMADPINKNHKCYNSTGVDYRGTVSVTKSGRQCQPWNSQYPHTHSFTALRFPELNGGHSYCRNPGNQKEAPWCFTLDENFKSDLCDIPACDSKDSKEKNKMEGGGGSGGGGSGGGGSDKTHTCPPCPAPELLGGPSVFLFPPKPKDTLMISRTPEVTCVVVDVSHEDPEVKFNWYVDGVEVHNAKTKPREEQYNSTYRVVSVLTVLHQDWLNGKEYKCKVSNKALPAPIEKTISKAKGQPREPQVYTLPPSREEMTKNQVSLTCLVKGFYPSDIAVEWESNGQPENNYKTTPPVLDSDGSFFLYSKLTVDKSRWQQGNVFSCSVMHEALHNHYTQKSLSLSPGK
- assayProcedure: SPR, mouse ROR1 on chip

| binder | kon [M⁻¹ s⁻¹] |
| --- | --- |
| E7 his myc (VNAR, VNAR) VNAR: TRVDQTPRTATKETGESLTINCVVTGAKYGLAATYWYRKNPGSSNQERISISGRYVESVNKRTMSFSLRIKDLTVADSATYYCKAYPWAMWGQWYDGAGTVLTVNQ | 1.41e+06 |
| CPF7 his myc (VNAR, VNAR) VNAR: TRVDQTPRTATKETGESLTINCVVTGAKYGLFATYWYRKNPGSSNQERISISGRYVESVNKRTMSFSLRIKDLTVADSATYYCKAVFMPQHWHPAAHWYDGAGTVLTVNQ | 2.26e+06 |
| P3A1 his myc (VNAR, VNAR; also called P3A1 6xHis myc) VNAR: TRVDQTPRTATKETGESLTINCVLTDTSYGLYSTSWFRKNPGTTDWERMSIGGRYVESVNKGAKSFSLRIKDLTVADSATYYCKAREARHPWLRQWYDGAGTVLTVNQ | 2.95e+06 |
| P3A1-[G4S]5-P3A1 his myc (VNAR, VNAR homodimer by genetic fusion; also called P3A1-P3A1; P3A1 dimer) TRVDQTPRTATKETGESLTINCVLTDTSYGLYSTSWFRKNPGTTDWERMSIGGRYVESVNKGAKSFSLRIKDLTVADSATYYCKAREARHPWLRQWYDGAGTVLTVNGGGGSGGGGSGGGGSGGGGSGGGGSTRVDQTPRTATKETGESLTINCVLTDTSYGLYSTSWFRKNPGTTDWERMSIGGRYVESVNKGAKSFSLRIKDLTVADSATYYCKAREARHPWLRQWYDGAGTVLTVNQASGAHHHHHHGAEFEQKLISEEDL | 4.17e+06 |
